# Tested System: T1, human cathepsin K (human, UniProt P43235 115-329)
# T1 construct: source: Pichia pastoris expression system, as described previously [12,56,57]
# T1 sequence (looked up): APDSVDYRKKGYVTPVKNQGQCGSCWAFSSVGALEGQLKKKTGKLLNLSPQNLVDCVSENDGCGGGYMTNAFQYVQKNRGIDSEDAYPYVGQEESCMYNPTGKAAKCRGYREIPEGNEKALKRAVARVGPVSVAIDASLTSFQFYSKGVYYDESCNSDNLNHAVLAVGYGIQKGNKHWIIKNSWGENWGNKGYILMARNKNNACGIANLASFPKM
# Method Summary: enzyme inhibition kinetics (fluorogenic peptide substrate activity assay); inhibitor preincubated with protease 15 min, 37 °C; IC50 from residual velocities, Ki by the Cheng-Prusoff equation; 50 mM sodium acetate pH 5.5, 0.1% polyethylene glycol 1500, 2.5 mM dithiothreitol (cathepsins L, K, V, B, F, C and papain; 50 mM NaCl for cathepsin C)
# Condition Description: both partners purified
Measured Property: pKi
# log scale: pKi equals minus log10 of the concentration in mol/L

binder IrThy-Nd, recombinant N-terminal Tg1 domain of IrThy (domain or fragment) SNAASVPTRVANHGASRPLSDCEQRKQREERNTGPLAIHIECNPDGSYKPMQCFGNPDQPRRMCACYDQEYDQIKAPSRQLKSCK , pKi observed: 7.36
